measured.target: human orexin type 2 receptor (Homo sapiens, UniProt O43614)
Construct: expressed in transfected cells
Sequence (O43614 1-444): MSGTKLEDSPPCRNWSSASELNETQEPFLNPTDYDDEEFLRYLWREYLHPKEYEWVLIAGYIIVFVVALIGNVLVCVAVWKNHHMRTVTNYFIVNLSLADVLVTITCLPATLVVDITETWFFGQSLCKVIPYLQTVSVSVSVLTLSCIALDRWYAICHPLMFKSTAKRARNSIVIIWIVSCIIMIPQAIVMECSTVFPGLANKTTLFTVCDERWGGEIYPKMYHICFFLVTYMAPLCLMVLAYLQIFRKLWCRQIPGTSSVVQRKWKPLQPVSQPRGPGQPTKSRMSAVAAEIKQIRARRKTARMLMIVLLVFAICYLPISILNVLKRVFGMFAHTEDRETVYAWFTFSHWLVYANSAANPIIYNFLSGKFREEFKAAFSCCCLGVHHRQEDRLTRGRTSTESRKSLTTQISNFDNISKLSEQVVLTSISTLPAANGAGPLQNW
procedure.summary: Measurement of orexin type 2 receptor agonist activity (calcium fluorescence, Fluo-4 AM, FDSS)
Type: cell-based
assay.setup: test compound 3 μM; CHO cells expressing human OX2 receptor; DMSO = 0%, orexin A (human) = 100%
Give OX2R agonist activity (3 μM, %) for every item shown.
Give bare numbers, in %.

The examples below pair each entry with its known result.
Cc1ccccc1-c1ccccc1C1CC1C(=O)N1CCCC(NS(C)(=O)=O)C1 (racemic)	52
CS(=O)(=O)NC1C2CN(C(=O)[C@@H]3C[C@@]3(F)c3ccccc3-c3c(F)cccc3F)CC2CC1(F)F (stereo partly shown)	93
CCS(=O)(=O)NC[C@@H]1[C@H](F)CN1C(=O)C1CC1(F)c1ccc(F)cc1-c1ccccc1Cl (stereo partly shown)	91
C[C@H](NS(C)(=O)=O)[C@@H]1CCN1C(=O)[C@@H]1C[C@@]1(F)c1ccccc1-c1c(F)cccc1F	102
CCS(=O)(=O)NC[C@@H]1[C@H](F)CN1C(=O)[C@@H]1C[C@@]1(F)c1ccccc1-c1c(F)cccc1F	104

State the recorded OX2R agonist activity (3 μM, %) for every item in the following list.
1. CS(=O)(=O)N[C@H]1CCCN(C(=O)C2(F)CC2c2ccccc2-c2c(F)cccc2F)C1 (stereo partly shown)
2. CCS(=O)(=O)NC[C@@H]1[C@H](F)CN1C(=O)C1CC1(F)c1ccccc1-c1ccccc1F (stereo partly shown)
3. CS(=O)(=O)N[C@H]1CCN(C(=O)C2CC2c2c(F)cccc2-c2c(F)cccc2F)C1 (single isomer, unassigned)
4. CS(=O)(=O)NC[C@@H]1[C@H](CO)CN1C(=O)[C@@H]1C[C@@]1(F)c1ccccc1-c1c(F)cccc1F
5. C[C@@H]1C[C@H](NS(C)(=O)=O)CN1C(=O)[C@@H]1C[C@H]1c1ccccc1-c1c(F)cccc1F
6. CCS(=O)(=O)NC[C@H]1[C@H](F)CN1C(=O)[C@@H]1C[C@@]1(F)c1ccccc1-c1c(F)cccc1F
7. CC1C(NS(C)(=O)=O)CCN1C(=O)[C@@H]1C[C@H]1c1ccccc1-c1c(F)cccc1F (stereo partly shown)
8. CS(=O)(=O)NC1CCN(C(=O)C2CC2c2sccc2-c2c(F)cccc2F)C1 (racemic)

1. 96
2. 100
3. 99
4. 99
5. 98
6. 98
7. 101
8. 89

###

Give OX2R agonist activity (3 μM, %) for every item shown.
measured.target: human orexin type 2 receptor (Homo sapiens)
Construct: expressed in transfected cells
Sequence (O43614 1-444): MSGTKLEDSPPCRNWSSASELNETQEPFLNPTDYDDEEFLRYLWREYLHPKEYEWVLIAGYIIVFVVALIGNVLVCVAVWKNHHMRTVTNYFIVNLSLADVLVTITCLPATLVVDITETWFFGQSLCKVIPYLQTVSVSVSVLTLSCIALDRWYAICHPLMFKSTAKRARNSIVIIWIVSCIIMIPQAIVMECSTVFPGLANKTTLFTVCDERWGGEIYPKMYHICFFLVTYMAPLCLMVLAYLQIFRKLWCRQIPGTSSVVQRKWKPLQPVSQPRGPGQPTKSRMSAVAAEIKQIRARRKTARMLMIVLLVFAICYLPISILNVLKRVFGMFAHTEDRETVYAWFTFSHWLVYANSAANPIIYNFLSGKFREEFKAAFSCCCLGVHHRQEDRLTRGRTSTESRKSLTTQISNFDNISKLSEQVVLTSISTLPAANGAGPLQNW
procedure.summary: Measurement of orexin type 2 receptor agonist activity (calcium fluorescence, Fluo-4 AM, FDSS)
Format: cell-based
assay.setup: test compound 3 μM; CHO cells expressing human OX2 receptor; DMSO = 0%, orexin A (human) = 100%
One number for each entry, in %.

CCS(=O)(=O)N[C@H]1CCCN(C(=O)C2CC2c2ccccc2-c2c(F)cccc2F)C1 (stereo partly shown)	97
CS(=O)(=O)NC[C@@H]1CCN1C(=O)[C@@H]1C[C@@]1(F)c1ccccc1-c1c(F)cccc1F	96
CCS(=O)(=O)NC[C@@H]1[C@H](F)CN1C(=O)C1CC1(F)c1ccccc1-c1ccccc1Cl (stereo partly shown)	90

# input for lookup
Give the reported value of OX2R agonist activity (3 μM, %) for this record: CS(=O)(=O)NC1CCCN(C(=O)C2CC2c2sccc2-c2ccccc2F)CC1 (racemic) 79

###

measured.target: human orexin type 2 receptor (Homo sapiens, UniProt O43614)
Construct: expressed in transfected cells
procedure.summary: Measurement of orexin type 2 receptor agonist activity (calcium fluorescence, Fluo-4 AM, FDSS)
Type: cell-based
assay.setup: test compound 3 μM; CHO cells expressing human OX2 receptor; DMSO = 0%, orexin A (human) = 100%
endpoint.name: OX2R agonist activity (3 μM, %)

The examples below pair each entry with its known result.
C[C@H]1CN(C(=O)[C@@H]2C[C@@]2(F)c2ccccc2-c2c(F)cccc2F)C[C@@H](CNS(C)(=O)=O)O1	88%
COCS(=O)(=O)NC1CCN(C(=O)C2CC2c2ccccc2-c2c(F)cccc2F)C1 (mixture of isomers)	85%
O=C([C@@H]1C[C@H]1c1ccccc1-c1c(F)cccc1F)N1CC[C@H]1CNS(=O)(=O)N1CCC1	96%

Would you please give the reported OX2R agonist activity (3 μM, %) of CS(=O)(=O)NC1CCCN(C(=O)C2CC2c2sccc2-c2c(F)cccc2F)C1 (racemic) with human orexin type 2 receptor (Homo sapiens, UniProt O43614)? 81%

###

Give OX2R agonist activity (3 μM, %) for every item shown.
measured.target: human orexin type 2 receptor (Homo sapiens, UniProt O43614)
Construct: expressed in transfected cells
procedure.summary: Measurement of orexin type 2 receptor agonist activity (calcium fluorescence, Fluo-4 AM, FDSS)
Assay type: cell-based
assay.setup: test compound 3 μM; CHO cells expressing human OX2 receptor; DMSO = 0%, orexin A (human) = 100%
Numbers only, in %.

State the recorded OX2R agonist activity (3 μM, %) for every item in the following list.
1. CS(=O)(=O)NC[C@H]1[C@H](CF)CN1C(=O)[C@@H]1C[C@@]1(F)c1ccccc1-c1c(F)cccc1F
2. CS(=O)(=O)NC1CCCN(C(=O)C2CC2c2c(F)cccc2-c2c(F)cccc2F)C1 (stereo not drawn) [Example 211]
3. Cc1ccccc1-c1ccccc1C1CC1C(=O)N1CCCC(NS(C)(=O)=O)CC1 (racemic)
4. CS(=O)(=O)NC1CCC2CN(C(=O)[C@@H]3C[C@H]3c3ccccc3-c3c(F)cccc3F)CC21F (stereo partly drawn)
5. CC(=O)[C@@H]1CN(C(=O)[C@@H]2C[C@@]2(F)c2ccccc2-c2c(F)cccc2F)[C@H]1CNS(C)(=O)=O
6. CS(=O)(=O)NC[C@@H]1CCN1C(=O)C1(CO)CC1c1ccccc1-c1c(F)cccc1F (stereo partly drawn)
7. COCC1(C(=O)N2C[C@@H](F)[C@H]2CNS(C)(=O)=O)CC1c1ccc(F)cc1-c1c(F)cccc1F (stereo partly drawn)

[99, 105, 65, 94, 50, 103, 99]

State the recorded OX2R agonist activity (3 μM, %) for every item in the following list.
1. CS(=O)(=O)NC1CCCN(C(=O)C2CC2c2ccccc2-c2c(F)cccc2F)C1 (racemic)
2. CS(=O)(=O)NC1CCCN(C(=O)C2CC2c2cc(F)ccc2-c2c(F)cccc2F)C1 (racemic)

[102, 56]

State the recorded OX2R agonist activity (3 μM, %) for every item in the following list.
1. Cc1ccc(C2CC2C(=O)N2CCC(NS(C)(=O)=O)C2)c(-c2c(F)cccc2F)c1 (racemic)
2. CS(=O)(=O)NC1CN(C(=O)C2CC2c2ccccc2-c2c(F)cccc2F)CCC1(F)F (racemic)
3. Cc1ccc(C2CC2C(=O)N2CCC(NS(C)(=O)=O)C2)c(-c2ccccc2Cl)c1 (racemic)
4. Cc1ccc(C2CC2C(=O)N2CCCC(NS(C)(=O)=O)CC2)c(-c2c(F)cccc2F)c1 (racemic)
5. CS(=O)(=O)NC1CCCN(C(=O)C2CC2c2ccccc2-c2cc(F)ccc2F)CC1 (racemic)

1. 110
2. 101
3. 94
4. 96
5. 75

Give the reported value of OX2R agonist activity (3 μM, %) for this record: CS(=O)(=O)NCC12CC(C1)N(C(=O)[C@@H]1C[C@@]1(F)c1ccccc1-c1c(F)cccc1F)C2 94
